Let's look at some compounds and their measured ΔG.
- system.tested: lecA (Pseudomonas aeruginosa, UniProt Q05097)
- Sequence (Q05097 2-122): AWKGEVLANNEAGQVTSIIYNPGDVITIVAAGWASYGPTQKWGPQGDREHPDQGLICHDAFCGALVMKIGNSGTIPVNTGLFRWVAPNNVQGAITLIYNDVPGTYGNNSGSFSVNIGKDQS
- assay: Isothermal titration calorimetry (ITC), binding to lecA
- experimental.context: ITC, T = 298 K

Here are 3 compounds together with their reported answers.
| compound | ΔG |
| --- | --- |
| OC[C@H]1O[C@@H](n2cc(CSc3nc(SCc4cn([C@@H]5O[C@H](CO)[C@H](O)[C@H](O)[C@H]5O)nn4)nc(SCc4cn([C@@H]5O[C@H](CO)[C@@H](O)[C@H](O)[C@H]5O)nn4)n3)nn2)[C@H](O)[C@@H](O)[C@H]1O [compound 17] | -31.3 kJ/mol |
| OC[C@H]1O[C@@H](n2cc(CSc3nc(SCc4cn([C@@H]5O[C@H](CO)[C@H](O)[C@H](O)[C@H]5O)nn4)nc(SCc4cn([C@@H]5O[C@H](CO)[C@H](O)[C@H](O)[C@H]5O)nn4)n3)nn2)[C@H](O)[C@@H](O)[C@H]1O [compound 1] | -34.1 kJ/mol |
| OC[C@H]1O[C@@H](n2cc(CSc3nc(SCc4cn([C@@H]5O[C@H](CO)[C@@H](O)[C@H](O)[C@H]5O)nn4)nc(SCc4cn([C@@H]5O[C@H](CO)[C@@H](O)[C@H](O)[C@H]5O)nn4)n3)nn2)[C@H](O)[C@@H](O)[C@@H]1O [compound 13] | <0 kJ/mol |

From here, focus on the item given below.
## Task State the recorded ΔG for this entry: C#CCSc1nc(SCc2cn([C@@H]3O[C@H](CO)[C@H](O)[C@H](O)[C@H]3O)nn2)nc(SCc2cn([C@@H]3O[C@H](CO)[C@H](O)[C@H](O)[C@H]3O)nn2)n1 [compound 16]
## Result -30.5 kJ/mol

----------
Let's look at some compounds and their measured β/N (improvement in affinity relative to the methyl glycoside, divided by the valency).
- system.tested: lecA (Pseudomonas aeruginosa, UniProt Q05097)
- assay: Isothermal titration calorimetry (ITC), binding to lecA
- experimental.context: ITC, T = 298 K

## Task State the recorded β/N (improvement in affinity relative to the methyl glycoside, divided by the valency) for this entry: C#CCSc1nc(SCc2cn([C@@H]3O[C@H](CO)[C@H](O)[C@H](O)[C@H]3O)nn2)nc(SCc2cn([C@@H]3O[C@H](CO)[C@H](O)[C@H](O)[C@H]3O)nn2)n1 [compound 16]
## Result 11

## Task State the recorded β/N (improvement in affinity relative to the methyl glycoside, divided by the valency) for this entry: OC[C@H]1O[C@@H](n2cc(CSc3nc(SCc4cn([C@@H]5O[C@H](CO)[C@H](O)[C@H](O)[C@H]5O)nn4)nc(SCc4cn([C@@H]5O[C@H](CO)[C@H](O)[C@H](O)[C@H]5O)nn4)n3)nn2)[C@H](O)[C@@H](O)[C@H]1O [compound 1]
## Result 29

## Task State the recorded β/N (improvement in affinity relative to the methyl glycoside, divided by the valency) for this entry: CO[C@@H]1O[C@H](CO)[C@H](O)[C@H](O)[C@H]1O [β-D-GalOMe, methyl β-D-galactoside]
## Result 1

## Task State the recorded β/N (improvement in affinity relative to the methyl glycoside, divided by the valency) for this entry: OC[C@H]1O[C@@H](n2cc(CSc3nc(SCc4cn([C@@H]5O[C@H](CO)[C@H](O)[C@H](O)[C@H]5O)nn4)nc(SCc4cn([C@@H]5O[C@H](CO)[C@@H](O)[C@H](O)[C@H]5O)nn4)n3)nn2)[C@H](O)[C@@H](O)[C@H]1O [compound 17]
## Result 14
